- system name: T1, recombinant cynomolgus monkey IL-13 (cynomolgus monkey, UniProt Q0PW92 21-132)
- T1 construct: bought; also called rc-IL-13; cIL-13
- T1 sequence (Q0PW92 entry or part of it): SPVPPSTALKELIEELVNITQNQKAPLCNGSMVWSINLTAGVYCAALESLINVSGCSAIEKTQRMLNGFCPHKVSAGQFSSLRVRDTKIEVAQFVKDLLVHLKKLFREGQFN
- experimental protocol: SPR
measurement name: koff
Answers without a unit are incomplete; give the number and then its unit.

Examples with answers:
binder	koff
BDG38.132 (antibody, V domains shown, IgG1) VH: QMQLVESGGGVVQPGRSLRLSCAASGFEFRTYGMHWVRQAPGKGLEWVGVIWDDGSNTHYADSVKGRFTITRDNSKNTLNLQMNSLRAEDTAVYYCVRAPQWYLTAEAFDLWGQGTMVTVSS VL: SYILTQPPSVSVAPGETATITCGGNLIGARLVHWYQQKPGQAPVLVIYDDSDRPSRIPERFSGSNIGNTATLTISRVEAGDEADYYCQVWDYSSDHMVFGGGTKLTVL	0.00201 s⁻¹
BDG38.075 (antibody, V domains shown, IgG1) VH: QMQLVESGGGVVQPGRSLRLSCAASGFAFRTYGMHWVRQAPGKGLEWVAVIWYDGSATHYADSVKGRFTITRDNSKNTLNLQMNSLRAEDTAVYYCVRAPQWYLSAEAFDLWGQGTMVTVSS VL: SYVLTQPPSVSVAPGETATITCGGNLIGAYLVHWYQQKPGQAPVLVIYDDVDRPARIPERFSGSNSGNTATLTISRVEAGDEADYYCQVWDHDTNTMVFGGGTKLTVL	0.0156 s⁻¹
BDG38.139 (antibody, V domains shown, IgG1) VH: QMQLVESGGGVVQPGRSLRLSCAASGFAFRTYGMHWVRQAPGKGLEWVAVIWDDGSNTHYADSVKGRFTITRDNSKNTLNLQMNSLRAEDTAVYYCVRAPQWYLSAEAFDLWGQGTMVTVSS VL: SYVLTQPPSVSVAPGETATITCGGNMIGAYLVHWYQQKPGQAPLLVIYDDVDRPARIPERFSGSNSGNTATLTISRVEAGDEADYYCQVWDHNSDHMVFGGGTKLTVL	0.0077 s⁻¹

Attention now turns to another entry.
Query :: Which value of koff has been reported for BDG38.094 (antibody, V domains shown, IgG1) VH: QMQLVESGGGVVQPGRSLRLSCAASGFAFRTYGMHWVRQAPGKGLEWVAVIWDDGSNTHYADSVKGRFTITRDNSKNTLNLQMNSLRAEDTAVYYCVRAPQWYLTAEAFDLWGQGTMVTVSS VL: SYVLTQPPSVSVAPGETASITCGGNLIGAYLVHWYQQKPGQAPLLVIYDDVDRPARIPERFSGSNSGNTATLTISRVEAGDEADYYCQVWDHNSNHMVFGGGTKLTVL in the records?
Result :: 0.006 s⁻¹
